system: Escherichia coli; assay: Antibacterial activity against Escherichia coli ATCC 25922 […]; format: functional
MIC values, listed per item
# unit: µg/mL | format: bare number

Use the examples below as a reference point.
C[C@@H](O)[C@H]1C(=O)N2C(C(=O)O)=C(SCCNC=N)C[C@H]12 [IMIPENEM ANHYDROUS] : 1
CO/N=C(\C(=O)N[C@@H]1C(=O)N2C(C(=O)O)=C(COC(C)=O)CS[C@H]12)c1csc(N)n1 : 1
CN(C)c1ccc(O)c2c1C[C@H]1C[C@H]3[C@H](N(C)C)C(O)=C(C(N)=O)C(=O)[C@@]3(O)C(O)=C1C2=O : 2
C[C@@H](O)[C@H]1C(=O)N2C(C(=O)O)=C(S[C@@H]3CN[C@H](CNS(N)(=O)=O)C3)[C@H](C)[C@H]12 : 0.12

Request: Could you tell me which MIC is on file for CO/N=C(\C(=O)N[C@@H]1C(=O)N2C(C(=O)[O-])=C(C[N+]3(C)CCCC3)CS[C@H]12)c1csc(N)n1 ?
Response: 2

Request: Could you tell me which MIC is on file for NCC[C@H](O)C(=O)N[C@@H]1C[C@H](N)[C@@H](O[C@H]2O[C@H](CN)[C@@H](O)[C@H](O)[C@H]2O)[C@H](O)[C@H]1O[C@H]1O[C@H](CO)[C@@H](O)[C@H](N)[C@H]1O ?
Response: 4

---

MIC values, listed per item
assay: Antibacterial activity against Acinetobacter calcoaceticus/baumannii complex isolate MC4AC9-30 expressing KPC beta lactamase; type: functional
# unit: µg/mL | format: bare number

CN(C)c1ccc(O)c2c1C[C@H]1C[C@H]3[C@H](N(C)C)C(O)=C(C(N)=O)C(=O)[C@@]3(O)C(O)=C1C2=O : 4

Could you now look at the following molecule, please?
Request: Could you tell me which MIC is on file for CN(C)c1cc(NC(=O)CNC(C)(C)C)c(O)c2c1C[C@H]1C[C@H]3[C@H](N(C)C)C(O)=C(C(N)=O)C(=O)[C@@]3(O)C(O)=C1C2=O ?
Response: 0.5

---

MIC values, listed per item
assay: Antibacterial activity against Acinetobacter calcoaceticus/baumannii complex isolate C1AC9-24 expressing KPC beta lactamase; assay type: functional

Use the examples below as a reference point.
C[C@@H](O)[C@H]1C(=O)N2C(C(=O)O)=C(S[C@@H]3CN[C@H](CNS(N)(=O)=O)C3)[C@H](C)[C@H]12 : > 2 µg/mL
CO/N=C(\C(=O)N[C@@H]1C(=O)N2C(C(=O)O)=C(COC(C)=O)CS[C@H]12)c1csc(N)n1 : > 32 µg/mL
NCC[C@H](O)C(=O)N[C@@H]1C[C@H](N)[C@@H](O[C@H]2O[C@H](CN)[C@@H](O)[C@H](O)[C@H]2O)[C@H](O)[C@H]1O[C@H]1O[C@H](CO)[C@@H](O)[C@H](N)[C@H]1O : > 32 µg/mL
C[C@H]1COc2c(N3CCN(C)CC3)c(F)cc3c(=O)c(C(=O)O)cn1c23.C[C@H]1COc2c(N3CCN(C)CC3)c(F)cc3c(=O)c(C(=O)O)cn1c23.O : > 8 µg/mL

Request: Could you tell me which MIC is on file for CO/N=C(\C(=O)N[C@@H]1C(=O)N2C(C(=O)[O-])=C(C[N+]3(C)CCCC3)CS[C@H]12)c1csc(N)n1 ?
Response: > 16 µg/mL

Request: Could you tell me which MIC is on file for CC(C)(O/N=C(\C(=O)N[C@@H]1C(=O)N2C(C(=O)[O-])=C(C[n+]3ccccc3)CS[C@H]12)c1csc(N)n1)C(=O)O ?
Response: > 16 µg/mL

---

tested on: Escherichia coli; experiment: Antibacterial activity against Escherichia coli ATCC 25922 […]; assay type: functional
METRIC_NAME: MIC (µg/mL)
# unit: µg/mL | format: bare number

C[C@@H](O)[C@H]1C(=O)N2C(C(=O)O)=C(S[C@@H]3CN[C@H](C(=O)N(C)C)C3)[C@H](C)[C@H]12 [MEROPENEM] : 1

Request: Could you tell me which MIC is on file for CC(C)(O/N=C(\C(=O)N[C@@H]1C(=O)N2C(C(=O)[O-])=C(C[n+]3ccccc3)CS[C@H]12)c1csc(N)n1)C(=O)O [CEFTAZIDIME] ?
Response: 1

Request: Could you tell me which MIC is on file for CN(C)c1cc(NC(=O)CNC(C)(C)C)c(O)c2c1C[C@H]1C[C@H]3[C@H](N(C)C)C(O)=C(C(N)=O)C(=O)[C@@]3(O)C(O)=C1C2=O [TIGECYCLINE] ?
Response: 0.25
